System: Staphylococcus aureus NRS100
Construct: NRS100
EXPERIMENT_DESCRIPTION: microbe, parasite or virus in culture
Design: species or system Staphylococcus aureus strains; Minimum inhibitory concentration, growth inhibition of S. aureus strains in culture
SETTINGS: NRS100, read-out: MIC

- COMPOUND: "CC[C@H]1OC(=O)[C@H](C)[C@@H](O[C@H]2C[C@@](C)(OC)[C@@H](O)[C@H](C)O2)[C@H](C)[C@@H](O[C@@H]2O[C@H](C)C[C@H](N(C)C)[C@H]2O)[C@](C)(O)C[C@@H](C)C(=O)[C@H](C)[C@@H](O)[C@]1(C)O [Erythromycin]"
  MIC, µg/mL: 0.06
- COMPOUND: "Cc1onc(-c2ccccc2)c1C(=O)N[C@@H]1C(=O)N2[C@@H]1SC(C)(C)[C@@H]2C(=O)O [Oxacillin]"
  MIC, µg/mL: 0.1
- COMPOUND: "CC[C@@H](C)[C@H]1C(=O)N([C@@H](C)c2cccc3ccccc23)C[C@@H]2N(C(=O)NCCCC(F)(F)F)CCC(=O)N12 [(S)-ZG197]"
  MIC, µg/mL: 2
- COMPOUND: "CC[C@H](C)[C@H]1C(=O)N([C@H](C)c2cccc3ccccc23)C[C@@H]2N(C(=O)NCCCC(F)(F)F)CCC(=O)N12 [(R)-ZG197]"
  MIC, µg/mL: 0.5
- COMPOUND: "O=C1C2=C(CCN(Cc3ccccc3)C2)N2CCN=C2N1Cc1ccc(C(F)(F)F)cc1 [ONC212]"
  MIC, µg/mL: 0.5
